experiment: Solubility in water at room temperature (salts of the invention); type: physicochemical
OBSERVABLE: Solubility in water

* CN1CCCC(n2nc(Cc3ccc(Cl)cc3)c3ccccc3c2=O)CC1 (stereo not shown) [lactate, azelastine lactate] | more than 10%
* CN1CCCC(n2nc(Cc3ccc(Cl)cc3)c3ccccc3c2=O)CC1 (stereo not shown) [malate, azelastine malate] | 3%
* CN1CCCC(n2nc(Cc3ccc(Cl)cc3)c3ccccc3c2=O)CC1 (stereo not shown) [acetate, azelastine acetate] | more than 10%

Source of measurements: patent US5086050A
